Entry source: patent US20090099029A1

Inhibition Results (Level) for assorted compounds
Target: kinases of Table 5 (Homo sapiens, UniProt P45985)
Sequence (P45985 whole entry): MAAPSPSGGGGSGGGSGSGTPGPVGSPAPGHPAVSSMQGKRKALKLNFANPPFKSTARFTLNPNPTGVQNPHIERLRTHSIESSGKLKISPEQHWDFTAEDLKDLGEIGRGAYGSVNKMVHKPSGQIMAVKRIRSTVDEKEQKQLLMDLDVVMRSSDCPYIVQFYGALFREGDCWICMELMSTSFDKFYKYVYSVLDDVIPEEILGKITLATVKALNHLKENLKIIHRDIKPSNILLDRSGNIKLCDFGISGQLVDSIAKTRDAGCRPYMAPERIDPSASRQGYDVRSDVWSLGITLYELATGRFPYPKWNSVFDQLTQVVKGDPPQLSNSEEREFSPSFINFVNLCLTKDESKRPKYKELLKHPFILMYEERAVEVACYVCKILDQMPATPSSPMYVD
Experiment: Further analysis of a plurality of inhibitors and a plurality of kinases (Table 5 inhibition results)
Format: biochemical
Parameters: scale not given here
Conditions: kinase MAP2K4 (Part I, plate E6, Domain 1); inhibitor 100 uM
reportedEndpoint: Inhibition Results (Level)

{"compound": "N#C/C(=C/c1ccc(O)c(O)c1)C(=O)NCc1ccccc1 [AG 490]", "reportedEndpoint": "Inhibition Results (Level)", "reported": 0}
{"compound": "CC(C)(C)n1nc(-c2ccc(Cl)cc2)c2c(N)ncnc21 [PP2]", "reportedEndpoint": "Inhibition Results (Level)", "reported": 2}
{"compound": "CC(=O)c1c(O)c(C)c(O)c(Cc2c(O)c3c(c(C(=O)/C=C/c4ccccc4)c2O)OC(C)(C)C=C3)c1O [Rottlerin (Mallotoxin)]", "reportedEndpoint": "Inhibition Results (Level)", "reported": 1}
{"compound": "O=c1c(O)c(-c2ccc(O)c(O)c2)oc2cc(O)cc(O)c12 [Quercetin]", "reportedEndpoint": "Inhibition Results (Level)", "reported": 0}
{"compound": "O=S(=O)(NCCNC/C=C/c1ccc(Br)cc1)c1cccc2cnccc12 [H-89]", "reportedEndpoint": "Inhibition Results (Level)", "reported": 1}
{"compound": "COc1cc2ncnc(Nc3cccc(Cl)c3)c2cc1OC [AG 1478]", "reportedEndpoint": "Inhibition Results (Level)", "reported": 0}
{"compound": "O=c1c(-c2ccc(O)cc2)coc2cc(O)cc(O)c12 [Genistein]", "reportedEndpoint": "Inhibition Results (Level)", "reported": 2}
{"compound": "Cn1cc(C2=C(c3cn(CCCSC(=N)N)c4ccccc34)C(=O)NC2=O)c2ccccc21 [Ro-31-8220]", "reportedEndpoint": "Inhibition Results (Level)", "reported": 1}
